Test: 14-day dose-range inhalation toxicology study in Sprague Dawley rats
Assay type: in vivo, rat
Conditions: Sprague Dawley, in vivo, inhaled or intranasal; rat, 14-day inhalation; read-out: maximum tolerated dose
property: MTD at 14 days

Give MTD at 14 days for the following molecule: CCn1c(C(C)(C)Oc2ccc(F)cc2F)nc2cc(NC(=O)Cc3ccc(S(=O)(=O)CC)cc3)ccc21 [PCCR-1]
32.1 mg/kg/day

----------
Test system: GABA Cl
Experiment: Cerep panel, GABA Cl
property: IC50 (µM)
The reply should contain only the number, in µM.

Give IC50 for the following compound: CCn1c(C(C)(C)Oc2ccc(F)cc2F)nc2cc(NC(=O)Cc3ccc(S(=O)(=O)CC)cc3)ccc21
4.8
